Tested on: Influenza B virus
Assay: Antiviral activity against Influenza B virus infected in MDCK cells assessed as inhibition of virus-induced cytopathogenicity after 4 days by colorimetric formazan-based MTS assay
Assay type: functional, organism-based
Settings: 96 h
Metric name: EC50

| Molecule | Metric name | Reading |
| --- | --- | --- |
| NC12CC3CC(CC(C3)C1)C2 | EC50 | > 200000 nM |
| CCOC(=O)c1c(C)nc(NCCCNc2ccnc3cc(Cl)ccc23)nc1-c1ccccc1 | EC50 | > 160 nM |
| Cc1nc(NCCCCNc2ccnc3cc(Cl)ccc23)nc(-c2ccccc2[N+](=O)[O-])c1C(=O)OC(C)C | EC50 | > 800 nM |
| CCOC(=O)c1c(C)nc(NCCCCNc2ccnc3cc(Cl)ccc23)nc1-c1ccccc1 | EC50 | > 160 nM |
| CCOC(=O)c1c(C)nc(NCCCNc2ccnc3cc(Cl)ccc23)nc1C | EC50 | > 4000 nM |

Now let's try a different one.
Q) Reported EC50 for CC(N)C12CC3CC(CC(C3)C1)C2 (stereo not given) : what is it?
A) > 200000 nM
